- Test system: KM-20L2
- TEST PROTOCOL: NCI tumour cell line growth inhibition, 48 h
The source made the active and inactive calls. No stated cut-off is given here; in the data, active = GI50 up to about 1.1 µM and inactive = higher.
Choose one outcome from this list and give only that: active, inactive

Outcome? CCOC(=O)Nc1cc2c(c(N)n1)N=C(c1ccccc1)[C@H](C)N2 [MIVOBULIN ISETHIONATE]
active

Outcome? C#CC1/C(=C\C(=O)OC)CCCC1O (centres undefined)
inactive

Outcome? COc1cc2c3cc1Oc1c(O)c(OC)cc4c1C(Cc1ccc(O)c(c1)Oc1ccc(cc1)CC3N(C)CC2)N(C)CC4 (centres undefined)
inactive

Outcome? C/C(=N\NC(=S)Nc1ccc(C(=O)O)cc1)c1ccccn1
inactive

Outcome? OC(c1ccccc1)(c1ccccc1)c1cccnc1
inactive

Outcome? CN(C)c1ccc(C=C2C(=O)OC(C)(C)OC2=O)cc1Br
inactive

Outcome? CC(C)(C1=NC(C(C)(C)C)CO1)C1=N[C@@H](C(C)(C)C)CO1 (some centres undefined)
inactive

Outcome? O=C(CC1(O)C(=O)Nc2c(Cl)cc(Cl)cc21)c1ccc(Br)cc1Br (centres undefined)
inactive

Outcome? CN1CCN(CN2C(=O)C3C4C=CC(C3C2=O)C2C3C(=O)N(CN5CCN(C)CC5)C(=O)C3C42)CC1 (centres undefined)
inactive

---

- System: NCI/ADR-RES
- TEST PROTOCOL: NCI tumour cell line growth inhibition, 48 h
Calls of active or inactive are those of the source. No stated cut-off is given here; in the data, active = GI50 up to about 1.1 µM and inactive = higher.
MEASURED QUANTITY: GI50

Give its GI50 value. Item: C#CC1(O)C(COP(=O)(O)OC(COCCCCCCCCCCCCCCCCCC)COP(=O)(O)OCC2OC(n3cc(C)c(=O)[nH]c3=O)CC2N=[N+]=[N-])OC(n2ccc(N)nc2=O)C1O (centres undefined)
1.22 µM (inactive)

Give its GI50 value. Item: CCCCCCCCCCCCC(=O)NCC(=O)NC(Cc1ccccc1)C(=O)Oc1ccc([N+](=O)[O-])cc1 (centres undefined)
57.1 µM (inactive)

Give its GI50 value. Item: c1ccc(C2=C(c3ccccc3)Sc3nnc(CCCCCCCCc4nnc5n4NC(c4ccccc4)=C(c4ccccc4)S5)n3N2)cc1
45.8 µM (inactive)

Give its GI50 value. Item: Cn1c2ccccc2c2c3c(c4c5ccccc5n(C)c4c21)C(=O)c1ccccc1C3=O
61.1 µM (inactive)

---

- System: HCC 2998
- TEST PROTOCOL: NCI tumour cell line growth inhibition, 48 h
The source made the active and inactive calls. Rule as the data show it: active = GI50 up to about 1.1 µM and inactive = higher.
Please respond with reported GI50 for every item in the list.

Give its GI50 value. Item: CCN(CC)/[N+]([O-])=N/OCC(C)O (centres undefined)
> 100 µM (inactive)

Give its GI50 value. Item: COc1cc(OC)c2c(=O)c3c([N+](=O)[O-])cccc3n(C)c2c1
> 100 µM (inactive)

Give its GI50 value. Item: N#Cc1nc(C#N)n(S(=O)(=O)c2ccccc2)c1NS(=O)(=O)c1ccccc1
> 100 µM (inactive)

Give its GI50 value. Item: C=CCOc1ccc(C2c3c(n[nH]c3O)CC(C)(O)C2C(=O)OC)cc1OC (centres undefined)
> 100 µM (inactive)

Give its GI50 value. Item: CC(O)CN1c2ccccc2Sc2ccc(Cl)cc21 (centres undefined)
> 10 µM (inactive)

Give its GI50 value. Item: CC(C)[C@H]1NC(=O)[C@H]2N=C(S[C@H]2C)[C@@H]2CCCN2C(=O)[C@H](Cc2ccccc2)NC(=O)[C@@H]2CSC(=N2)[C@@H](Cc2ccccc2)NC(=O)[C@@H]2CSC1=N2
10.7 µM (inactive)

Give its GI50 value. Item: Cn1c2ccccc2c2c3c(c4c5ccccc5n(C)c4c21)C(=O)c1ccccc1C3=O
96.8 µM (inactive)

Give its GI50 value. Item: COc1cc(OC)c(OC)cc1/C=C/c1cc[n+](C)c2ccccc12
52.6 µM (inactive)

Give its GI50 value. Item: NCc1ccc(-c2ccc(-c3ccc(-c4ccc(CN)s4)s3)s2)s1
> 100 µM (inactive)

---

- Test system: UACC-257
- TEST PROTOCOL: NCI tumour cell line growth inhibition, 48 h
The source made the active and inactive calls. Rule as the data show it: active = GI50 up to about 1.1 µM and inactive = higher.
Choose one outcome from this list and give only that: true (1) = active, false (0) = inactive

Outcome? CCC1N2CCCCC2[C@@H]2c3[nH]c4ccccc4c3CCN12 (some centres undefined)
false (0)

Outcome? COc1ccc(C#CCC(OC2OC(CO)C(O)C(O)C2O)C(O)c2ccc(OC)c(OC)c2)cc1OC (centres undefined)
false (0)

Outcome? O=C1OCc2c1cc1cc3c(cc1c2-c1ccc2c(c1)OCO2)OCO3.O=C1OCc2cc3cc4c(cc3c(-c3ccc5c(c3)OCO5)c21)OCO4
false (0)

Outcome? COC(=O)C1=CC2OC1(C)CCC2=O (centres undefined)
false (0)

Outcome? CC(/C=C/c1ccccc1)=N\N=C(C)\C=C\c1ccccc1
false (0)

Outcome? COc1ccc(C2C(Cl)C(=O)N2NC(=O)c2ccc(NC(C)=O)cc2)cc1OC (centres undefined)
false (0)

Outcome? O=C1CC[C@@]2(O)[C@H]3Cc4ccc(-c5cccc(O)c5)c5c4[C@@]2(CCN3CC2CC2)[C@H]1O5
true (1)

Outcome? C#CC1(O)C(COP(=O)(O)OC(COCCCCCCCCCCCCCCCCCC)COP(=O)(O)OCC2OC(n3cc(C)c(=O)[nH]c3=O)CC2N=[N+]=[N-])OC(n2ccc(N)nc2=O)C1O (centres undefined)
false (0)

Outcome? Nc1nc(Cl)c(N)c(NCC2(CO)CCCC2)n1
false (0)

Outcome? CCOP(=O)(OCC)C(c1ccccc1)N(C(=O)NC(F)(F)F)c1cccc(F)c1 (centres undefined)
false (0)

Outcome? CCOC(=O)Nc1cc2c(c(N)n1)N=C(c1ccccc1)[C@H](C)N2 [MIVOBULIN ISETHIONATE]
true (1)

Outcome? CNC(=O)CN(CC(=O)O)C(=O)NC
false (0)

Outcome? N#CC(c1ccc(O)cc1)N1CCN(C(C#N)c2ccc(O)cc2)CC1 (centres undefined)
false (0)

Outcome? C=CCN1CCC(OC(=O)C(O)(C#CC)C2CCCC2)CC1 (centres undefined)
false (0)

Outcome? N#CC1=C(N)OC2=C(CCCc3ccc([N+](=O)[O-])cc32)C1c1ccc(Cl)cc1 (centres undefined)
false (0)

Outcome? COC1(OC)C2(Cl)C(Cl)=C(Cl)C1(Cl)C1COCC12 (centres undefined)
false (0)

Outcome? CC(C)N1CN(C(C(=O)N[C@@H]2C(=O)N3C2SC(C)(C)C3C(=O)O)c2ccccc2)CSC1=S (some centres undefined)
false (0)

Outcome? Cc1nc2c(O)nc3ccccc3c2o1
false (0)

Outcome? CCOC(=O)c1c(N2CCCC2)[nH]c(=O)c(C(c2c(O)c(C(=O)OCC)c(N3CCCC3)[nH]c2=O)C(C)C)c1O
false (0)

---

- System: UACC-257
- TEST PROTOCOL: NCI tumour cell line growth inhibition, 48 h
Activity calls are given as the source filed them. Cut-off read from the data, not from the text of the source: active = GI50 up to about 1.1 µM and inactive = higher.
Please respond with reported GI50 for every item in the list.

Give its GI50 value. Item: Cc1nc2ccccc2c(=O)n1NC(=S)Nc1ccc(Cl)cc1[N+](=O)[O-]
> 100 µM (inactive)

Give its GI50 value. Item: CC(C)(C)OC(=O)NCCC(=O)NC1(c2cc3ccccc3s2)CCCCC1
19.1 µM (inactive)

Give its GI50 value. Item: CCOC(=O)CN1C(=O)C(=O)N(c2ccc(OC)c3ccccc23)C1=O
> 100 µM (inactive)

Give its GI50 value. Item: CC(=O)OC(C)(C)[C@H]1O[C@]23O[C@]1(C)C[C@@H](C)[C@@H]2[C@@]1(C)CC[C@@]24C[C@@]25CC[C@H](O[C@@H]2OC[C@@H](O)[C@H](O)[C@H]2O)C(C)(C)[C@@H]5CC[C@H]4[C@]1(C)[C@H]3O
18.8 µM (inactive)

---

- System: U-251
- TEST PROTOCOL: NCI tumour cell line growth inhibition, 48 h
Activity calls are given as the source filed them. No stated cut-off is given here; in the data, active = GI50 up to about 1.1 µM and inactive = higher.
Choose one outcome from this list and give only that: class 1 = active, class 0 = inactive

Outcome? O=C(N/C(=C\c1cc(Cl)ccc1Cl)c1nc2ccccc2[nH]1)c1ccccc1
class 0

Outcome? C#CCOC(=O)C(N)CCCNC(=N)N (centres undefined)
class 0

Outcome? C=C(CBr)CCCOCc1ccccc1
class 0

Outcome? O=C(Nc1ccccc1)c1cc(S(=O)(=O)NC2=Nc3ccc(Cl)cc3C(c3ccccc3)N2)c(SSc2cc(Cl)c(C(=O)Nc3ccccc3)cc2S(=O)(=O)NC2=Nc3ccc(Cl)cc3C(c3ccccc3)N2)cc1Cl (centres undefined)
class 0

Outcome? CC(=O)O[C@H]1C(=O)[C@@]2(C)[C@H]([C@H](OC(=O)c3ccccc3)[C@]3(O)C[C@H](OC(=O)[C@H](O)[C@@H](NC(=O)c4cccc(N=[N+]=[N-])c4)c4ccccc4)C(C)=C1C3(C)C)[C@]1(OC(C)=O)CO[C@@H]1C[C@@H]2O
class 1

Outcome? CC(=O)OCC1OC(SC2OC(COC(C)=O)C(OC(C)=O)C(OC(C)=O)C2OC(C)=O)C(OC(C)=O)C(OC(C)=O)C1OC(C)=O (centres undefined)
class 0

Outcome? O=C(O)CN(c1ccccc1)S(=O)(=O)c1ccccc1[N+](=O)[O-]
class 0

Outcome? CCOc1ccc(C(c2c(O)c3ccccc3oc2=O)c2c(O)c3ccccc3oc2=O)cc1
class 0

Outcome? Oc1ccc(-c2nc3cc(F)ccc3s2)cc1
class 0

Outcome? C=C1CC2CC[C@@]34C[C@H]5O[C@@H]6C(O[C@H]7CC[C@H](CC(=O)OC8[C@H](C)C9OC%10C[C@]%11(C[C@@H]%12O[C@]%13(C[C@H](C)[C@@H]%14O[C@H]([C@H](O)C[C@H](O)CO)C[C@@H]%14O%13)C[C@H](C)[C@@H]%12O%11)OC%10CC9O[C@H]8C[C@H]8O[C@H](CC[C@@H]1O2)C[C@@H](C)C8=C)O[C@H]7[C@@H]6O3)[C@@H]5O4 (some centres undefined)
class 1

Outcome? CCOC(=O)c1cc2cc(C)cc(C(=O)c3ccc([N+](=O)[O-])cc3)c2[nH]1
class 0

Outcome? CC1CCC[P+](Cc2ccccc2)(c2ccccc2)CC1 (centres undefined)
class 0

Outcome? Cc1ccc2c(c1-c1ccccc1)C(=O)OC2
class 0

Outcome? NCc1ccc(-c2ccc(-c3ccc(-c4ccc(CN)s4)s3)s2)s1
class 0

Recorded values, source ChEMBL document CHEMBL1201862.
